# ASSAY SYSTEM: Recombinant human Cbl-b (aa 36-427) (Homo sapiens (Human))
# Sequence (Q13191 36-427): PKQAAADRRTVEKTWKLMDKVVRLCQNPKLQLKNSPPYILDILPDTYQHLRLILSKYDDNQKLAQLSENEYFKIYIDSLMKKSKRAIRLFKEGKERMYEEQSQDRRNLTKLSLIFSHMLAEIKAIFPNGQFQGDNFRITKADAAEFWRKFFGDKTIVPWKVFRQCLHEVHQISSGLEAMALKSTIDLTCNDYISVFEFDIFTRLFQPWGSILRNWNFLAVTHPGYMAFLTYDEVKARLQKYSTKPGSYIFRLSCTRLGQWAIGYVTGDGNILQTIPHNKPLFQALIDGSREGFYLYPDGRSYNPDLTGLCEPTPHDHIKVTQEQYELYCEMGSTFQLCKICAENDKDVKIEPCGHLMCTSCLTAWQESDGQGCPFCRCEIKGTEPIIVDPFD
# ASSAY NOTES: Cbl-b Biochemical Assay (TR-FRET)
# MEASUREMENT PARAMETERS: read-out: TR-FRET hCbl-b IC50

{"columns": ["COMPOUND", "ASSAY SYSTEM", "IC50"],
 "data": [
  ["CN(Cc1ccc2c(c1)C(=O)N(c1cc(-c3ccc(F)cc3-c3nncn3C)cc(C3CC3)n1)C2)CC(C)(C)O [AMM-1]", "Recombinant human Cbl-b (aa 36-427) (Homo sapiens (Human))", "≤ 200 nM"],
  ["CN(Cc1cc(F)c2c(c1)C(=O)N(c1cc(-c3ccc(C#N)cc3-c3nncn3C)cc(C3CC3)n1)C2)C1CC1 [AMQ-2]", "Recombinant human Cbl-b (aa 36-427) (Homo sapiens (Human))", "≤ 200 nM"],
  ["Cn1cnnc1-c1cc(C#N)ccc1-c1cc(C2CC2)nc(N2Cc3ccc(CNCC4CC4)cc3C2=O)c1 [AIB-2]", "Recombinant human Cbl-b (aa 36-427) (Homo sapiens (Human))", "≤ 200 nM"],
  ["Cn1cnnc1-c1cc(Cl)ccc1-c1cc(C2CC2)nc(N2Cc3ccc(CNCC4(O)CCC4)cc3C2=O)c1 [AGW-6]", "Recombinant human Cbl-b (aa 36-427) (Homo sapiens (Human))", "≤ 200 nM"],
  ["CCNc1cc(-c2c(-c3nncn3C)cnn2C)cc(N2Cc3c(cc(COCC4(F)CCC4)cc3C(F)(F)F)C2=O)n1 [AFP-2]", "Recombinant human Cbl-b (aa 36-427) (Homo sapiens (Human))", "≤ 200 nM"],
  ["CCNc1cc(-c2ccc(C(=O)OC)cc2-c2nncn2C)cc(N2Cc3c(cccc3C(F)(F)F)C2=O)n1 [AFC-1]", "Recombinant human Cbl-b (aa 36-427) (Homo sapiens (Human))", "1000 to 10000 nM"],
  ["Cn1cnnc1-c1cc(F)ccc1-c1cc(C2CC2)nc(N2Cc3ccc(COCC4(N)CCC4)cc3C2=O)c1 [AGI-3]", "Recombinant human Cbl-b (aa 36-427) (Homo sapiens (Human))", "≤ 200 nM"],
  ["C[C@H](NCC1(O)CCC1)c1cc2c(c(C(F)(F)F)c1)CN(c1cc(-c3ccccc3-c3nncn3C)cc(C3CC3)n1)C2=O (single isomer, unassigned) [AFT-2]", "Recombinant human Cbl-b (aa 36-427) (Homo sapiens (Human))", "≤ 200 nM"],
  ["Cn1cnnc1-c1cnn(C)c1-c1cc(C2CC2)nc(N2Cc3c(cc(COCC4(O)CCC4)cc3C(F)(F)F)C2=O)c1 [AFV-3]", "Recombinant human Cbl-b (aa 36-427) (Homo sapiens (Human))", "≤ 200 nM"],
  ["Cn1cnnc1-c1cc(C#N)ccc1-c1cc(C2CC2)nc(N2Cc3c(F)cc(CN4CCC[C@H]4CF)cc3C2=O)c1 [APA-2]", "Recombinant human Cbl-b (aa 36-427) (Homo sapiens (Human))", "≤ 200 nM"],
  ["CCNc1cc(-c2ccc(F)cc2-c2nncn2C)cc(N2Cc3c(cc(COCC4(O)CCC4)cc3C(F)(F)F)C2=O)n1 [AFF-2]", "Recombinant human Cbl-b (aa 36-427) (Homo sapiens (Human))", "≤ 200 nM"],
  ["Cn1cnnc1-c1ccncc1-c1cccc(N2Cc3c(cccc3C(F)(F)F)C2=O)c1 [ABB-5]", "Recombinant human Cbl-b (aa 36-427) (Homo sapiens (Human))", "1000 to 10000 nM"],
  ["CCNc1cc(-c2c(-c3nncn3C)cnn2C)cc(N2Cc3c(cc(O)cc3C(F)(F)F)C2=O)n1 [ACQ-7]", "Recombinant human Cbl-b (aa 36-427) (Homo sapiens (Human))", "≤ 200 nM"],
  ["C[C@H](Cc1nncn1C)c1cc(NS(C)(=O)=O)nc(N2Cc3c(cccc3C(F)(F)F)C2=O)c1 [AHK-1]", "Recombinant human Cbl-b (aa 36-427) (Homo sapiens (Human))", "200 to 1000 nM"],
  ["CCNc1cc(-c2c(-c3nncn3C)cnn2C)cc(N2Cc3c(cc(COC(C)C)cc3C(F)(F)F)C2=O)n1 [ACW-1]", "Recombinant human Cbl-b (aa 36-427) (Homo sapiens (Human))", "≤ 200 nM"],
  ["Cn1cnnc1-c1cc(C#N)ccc1-c1cc(C2CC2)nc(N2Cc3ccc(CNCC4CC(F)(F)C4)cc3C2=O)c1 [AKC-2]", "Recombinant human Cbl-b (aa 36-427) (Homo sapiens (Human))", "≤ 200 nM"],
  ["Cn1cnnc1-c1ccccc1-c1cccc(N2Cc3c(cc(CO[C@@H]4CCC[C@@H]4O)cc3C(F)(F)F)C2=O)c1 [AV-3]", "Recombinant human Cbl-b (aa 36-427) (Homo sapiens (Human))", "200 to 1000 nM"],
  ["CCNc1cc(-c2ccc(C#N)cc2-c2nncn2C)cc(N2Cc3c(cc(CN[C@@H]4CCC[C@@H]4O)cc3C(F)(F)F)C2=O)n1 [AEL-2]", "Recombinant human Cbl-b (aa 36-427) (Homo sapiens (Human))", "≤ 200 nM"],
  ["CCNc1cc(-c2c(-c3nncn3C)cnn2C)cc(C(=O)O)n1 [ABQ-1]", "Recombinant human Cbl-b (aa 36-427) (Homo sapiens (Human))", "10000 to 50000 nM"],
  ["CC(NCC1CCC1)c1ccc2c(c1)C(=O)N(c1cc(-c3ccc(C#N)cc3-c3nncn3C)cc(C3CC3)n1)C2 (centres unmarked) [AJZ-1]", "Recombinant human Cbl-b (aa 36-427) (Homo sapiens (Human))", "≤ 200 nM"],
  ["CCNc1cc(-c2ccc(F)cc2-c2nncn2C)cc(N2Cc3c(cc(COCC4(N)CCC4)cc3C(F)(F)F)C2=O)n1 [AGS-2]", "Recombinant human Cbl-b (aa 36-427) (Homo sapiens (Human))", "≤ 200 nM"],
  ["Cn1cnnc1-c1cc(C#N)ccc1-c1cc(C2CC2)nc(N2Cc3ccc(OC[C@H](O)CO)cc3C2=O)c1 [AJN-3]", "Recombinant human Cbl-b (aa 36-427) (Homo sapiens (Human))", "≤ 200 nM"],
  ["Cn1cnnc1-c1cc(C#N)ccc1-c1cc(C2CC2)nc(N2Cc3ccc(CN4CCC5(CC5)C4)cc3C2=O)c1 [AND-1]", "Recombinant human Cbl-b (aa 36-427) (Homo sapiens (Human))", "≤ 200 nM"],
  ["Cn1cnnc1-c1ccccc1-c1cc(NCCO)nc(N2Cc3c(cccc3C(F)(F)F)C2=O)c1 [ABT-2]", "Recombinant human Cbl-b (aa 36-427) (Homo sapiens (Human))", "200 to 1000 nM"],
  ["Cn1cnnc1-c1cc(C#N)ccc1-c1cc(C2CC2)nc(N2Cc3ccc(CN4CCC(F)(F)CC4)cc3C2=O)c1 [ALU-2]", "Recombinant human Cbl-b (aa 36-427) (Homo sapiens (Human))", "≤ 200 nM"],
  ["C[C@H]1CCCN(Cc2cc3c(c(C(F)(F)F)c2)CN(c2cccc(-c4ccccc4-c4nncn4C)c2)C3=O)C1 [Example R-2]", "Recombinant human Cbl-b (aa 36-427) (Homo sapiens (Human))", "≤ 200 nM"],
  ["Cn1cnnc1-c1cc(C#N)ccc1-c1cc(C2CC2)nc(N2Cc3c(F)cc(CN4C[C@@]5(C)C[C@@H]4CO5)cc3C2=O)c1 [ANV-1]", "Recombinant human Cbl-b (aa 36-427) (Homo sapiens (Human))", "≤ 200 nM"],
  ["CC(C)OCCNCc1ccc2c(c1)C(=O)N(c1cc(-c3ccc(C#N)cc3-c3nncn3C)cc(C3CC3)n1)C2 [AIL-3]", "Recombinant human Cbl-b (aa 36-427) (Homo sapiens (Human))", "≤ 200 nM"],
  ["Cn1cnnc1-c1cc(F)ccc1-c1cc(C2CC2)nc(N2Cc3c(cc(CO)cc3C(F)(F)F)C2=O)c1 [AFK-1]", "Recombinant human Cbl-b (aa 36-427) (Homo sapiens (Human))", "≤ 200 nM"]
]}
